biological target: Keap1 Kelch domain (Homo sapiens); construct: made in house; host or cells: E. coli BL21 CodonPlus; assay: Fluorescence polarisation (FP) competition assay; format: binding; details: FP assay, Keap1 Kelch domain
Sequence (Q14145 321-609 limits assumed): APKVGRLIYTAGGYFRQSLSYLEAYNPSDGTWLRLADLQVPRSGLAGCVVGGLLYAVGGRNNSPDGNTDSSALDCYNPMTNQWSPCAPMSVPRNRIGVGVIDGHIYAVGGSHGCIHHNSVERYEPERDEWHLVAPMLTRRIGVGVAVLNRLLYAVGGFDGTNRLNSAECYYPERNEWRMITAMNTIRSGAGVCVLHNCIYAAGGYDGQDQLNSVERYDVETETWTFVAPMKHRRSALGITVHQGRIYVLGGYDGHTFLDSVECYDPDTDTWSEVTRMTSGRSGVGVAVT
measured_metric: IC50 (µM)

# substance, measured_metric, unit_string, recorded_value
data = [
    ("Ac-DPENGEL-OH [compound 14, Ac‐Asp‐Pro‐Glu‐Asn‐Gly‐Glu‐Leu‐OH]", "IC50", "µM", 3.04),
]
